In this section we review reported pIC50 values for a set of molecules.
- Measured Target: Aromatase (Homo sapiens)
- Sequence (P11511 whole entry): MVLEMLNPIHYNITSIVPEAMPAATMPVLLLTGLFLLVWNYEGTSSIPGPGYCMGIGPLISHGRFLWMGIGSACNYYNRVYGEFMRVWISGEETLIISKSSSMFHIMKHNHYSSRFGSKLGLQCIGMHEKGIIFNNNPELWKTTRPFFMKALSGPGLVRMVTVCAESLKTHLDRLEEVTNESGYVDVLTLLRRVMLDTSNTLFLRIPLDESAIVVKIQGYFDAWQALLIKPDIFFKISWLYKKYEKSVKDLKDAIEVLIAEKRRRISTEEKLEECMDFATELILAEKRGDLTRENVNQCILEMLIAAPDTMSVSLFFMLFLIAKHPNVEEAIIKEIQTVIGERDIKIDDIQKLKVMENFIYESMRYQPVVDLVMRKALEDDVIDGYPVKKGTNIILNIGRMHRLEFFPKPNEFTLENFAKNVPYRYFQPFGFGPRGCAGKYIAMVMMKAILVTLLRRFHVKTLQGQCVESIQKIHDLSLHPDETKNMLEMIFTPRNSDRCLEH
- Test Description: Inhibition of human placental aromatase
- Setup Conditions: human
Give just the number in uM; leave the unit off.

Molecule	pIC50 / uM
C[C@]12CCCC(=O)[C@@H]1CC[C@@H]1[C@@H]2CC[C@]2(C)C(=O)CC[C@@H]12	-0.38
C[C@]12CCC(=O)C(O)=C1CC[C@@H]1[C@@H]2CC[C@]2(C)C(=O)CC[C@@H]12	1.377
CCCCCC(=O)OC1=C2CC[C@@H]3[C@H](CC[C@]4(C)C(=O)CC[C@@H]34)[C@@]2(C)CCC1	-0.255
C[C@]12CC[C@H]3O[C@H]3[C@@H]1CC[C@@H]1[C@@H]2CC[C@]2(C)C(=O)CC[C@@H]12	0.839
CO[C@H]1CCC[C@@]2(CO)C1=CC[C@@H]1[C@@H]2CC[C@]2(C)C(=O)CC[C@@H]12	-2.176
C[C@]12CC[C@H]3[C@@H](C[C@H](O)C4=CCCC[C@@]43CO)[C@@H]1CCC2=O	-0.146

stdin: State its pIC50: `CC(=O)OC1=C2CC[C@@H]3[C@H](CC[C@]4(C)C(=O)CC[C@@H]34)[C@@]2(CO)CCC1`
stdout: -0.556

stdin: Identify the reported pIC50 for the following entry. `CC(=O)OC1=C2CC[C@@H]3[C@H](CC[C@]4(C)C(=O)CC[C@@H]34)[C@@]2(C)CCC1`
stdout: 0.18

stdin: Report measured pIC50; entry is CC(=O)OC1CCC[C@@]2(C)C1=CC[C@@H]1[C@@H]2CC[C@]2(C)C(=O)CC[C@@H]12 (some centres not stated)
stdout: 0

stdin: Indicate the recorded pIC50 value for this molecule: `CC[C@H]1CCC[C@@]2(C)C1=CC[C@@H]1[C@@H]2CC[C@]2(C)C(=O)CC[C@@H]12`
stdout: -0.653

stdin: Return reported pIC50. Input molecule: `C[C@]12CC[C@H]3[C@@H](CCC4=CCCC[C@@]43CO)[C@@H]1CCC2=O`
stdout: 1.31

stdin: Specify measured pIC50 for `C[C@]12CCCC(OC(=O)c3ccccc3)=C1CC[C@@H]1[C@@H]2CC[C@]2(C)C(=O)CC[C@@H]12` .
stdout: 0.194

stdin: Entry CC(=O)OC1CCC[C@@]2(CO)C1=CC[C@@H]1[C@@H]2CC[C@]2(C)C(=O)CC[C@@H]12 (some centres not stated) needs its pIC50 filled in; supply it.
stdout: -1.041

stdin: Input `C[C@]12CC[C@@H](O)C(=O)[C@@H]1CC[C@@H]1[C@@H]2CC[C@]2(C)C(=O)CC[C@@H]12` , output reported pIC50.
stdout: 0.174

stdin: Return pIC50 (reported value) for this molecule: `C[C@]12CC[C@H]3O[C@H]3[C@@H]1CC[C@@H]1[C@@H]2CC[C@]2(C)[C@@H](O)CC[C@@H]12`
stdout: -0.813

stdin: Tell me its pIC50 given `C[C@]12CC[C@H]3[C@@H](C[C@@H](O)C4=CCCC[C@@]43CO)[C@@H]1CCC2=O` as the entry.
stdout: 0.027

stdin: Please look at this molecule and report its pIC50: `C[C@H]1CCC[C@@]2(C)C1=CC[C@@H]1[C@@H]2CC[C@]2(C)C(=O)CC[C@@H]12`
stdout: -0.255

stdin: Quick one: give measured pIC50 for `CCCC(=O)OC1=C2CC[C@@H]3[C@H](CC[C@]4(C)C(=O)CC[C@@H]34)[C@@]2(C)CCC1`
stdout: -0.176

stdin: Determine from records and report pIC50 for `C[C@]12CCC(=O)C(O)=C1CC[C@@H]1[C@@H]2CC[C@]2(C)OC(=O)CC[C@@H]12`
stdout: -0.267

stdin: Please look at this molecule and report its pIC50: `C[C@]12CCC=C[C@@H]1CC[C@@H]1[C@@H]2CC[C@]2(C)C(=O)CC[C@@H]12`
stdout: 0.648

stdin: For `C[C@]12CCC=C[C@@H]1CC[C@@H]1[C@@H]2CC[C@]2(C)[C@@H](O)CC[C@@H]12` , write its pIC50.
stdout: -1.477

stdin: Supply pIC50 value. Item: `CCC[C@H]1CCC[C@@]2(C)C1=CC[C@@H]1[C@@H]2CC[C@]2(C)C(=O)CC[C@@H]12`
stdout: -0.74
